Cited source: the supplement of paper PMC10567573

B1: FBXO3 (parent)
chain: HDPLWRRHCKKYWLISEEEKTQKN

# Variants of: B1
# test: protein stability index of a GFP-peptide fusion (GPS, HEK-293T) (PSI 1-6); higher = more stable;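 also: lentivirally expressed fusions sorted by FACS into six bins by GFP to DsRed ratio, PSI derived from sequencing read proportions per bin multiplied by bin number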
# condition-summary: c terminus: a fixed tail appended
Rule: 1 for protein stability index not less than 3, -1 for anything less.

A selection of reference data follows.
mutation-string	discrete-label
Q22Y	-1
S16K	1
Y12F	1
H1P	1
Q22D	1
T21L	-1

Kindly determine if protein stability index recorded for C9E is above or exactly 3.
1

Kindly determine if protein stability index recorded for L14R is above or exactly 3.
1

Kindly determine if protein stability index recorded for D2Y is above or exactly 3.
-1

Kindly determine if protein stability index recorded for I15G is above or exactly 3.
1

Kindly determine if protein stability index recorded for W13C is above or exactly 3.
1
